System: 324938-238-R-J1-PDC complex spheroid growth, % test/control;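 also: spheroids exposed to agents for seven days before viability read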
protocolNotes: Anticancer human tumor 324938-238-R-J1-PDC patient-derived bladder carcinoma cell line growth inhibition [AhR]
assayConditions: curve of first compound; second compound 0.316 µM
measurementLabel: pIC50
Friendly reminder that pIC50 comes from taking -log10 of the concentration in mol/L.

CC(C)CC(NC(=O)C(Cc1ccccc1)NC(=O)c1cnccn1)B(O)O (stereo not drawn) + Cc1cncc(-c2nc(NCCc3c[nH]c4ccccc34)c3ncn(C(C)C)c3n2)c1 = 8.38

Which measured pIC50 value corresponds to CC1COCCN1c1cc(C2(S(C)(=N)=O)CC2)nc(-c2ccnc3[nH]ccc23)n1 (stereo not drawn) + CC(CO)NC(=O)c1cc(-c2ccc(Cl)cc2)nn(-c2cnn(C)c2)c1=O ? 5.80
